Taken from patent US5849777A.

target: rat liver HMG-COA reductase (Rattus norvegicus); construct: rat liver HMG-COA reductase activity; from tissue; host or cells: rat liver; test: inhibition of rat liver HMG-CoA reductase activity; assay type: biochemical; conditions: Table I
Sequence (P51639 whole entry): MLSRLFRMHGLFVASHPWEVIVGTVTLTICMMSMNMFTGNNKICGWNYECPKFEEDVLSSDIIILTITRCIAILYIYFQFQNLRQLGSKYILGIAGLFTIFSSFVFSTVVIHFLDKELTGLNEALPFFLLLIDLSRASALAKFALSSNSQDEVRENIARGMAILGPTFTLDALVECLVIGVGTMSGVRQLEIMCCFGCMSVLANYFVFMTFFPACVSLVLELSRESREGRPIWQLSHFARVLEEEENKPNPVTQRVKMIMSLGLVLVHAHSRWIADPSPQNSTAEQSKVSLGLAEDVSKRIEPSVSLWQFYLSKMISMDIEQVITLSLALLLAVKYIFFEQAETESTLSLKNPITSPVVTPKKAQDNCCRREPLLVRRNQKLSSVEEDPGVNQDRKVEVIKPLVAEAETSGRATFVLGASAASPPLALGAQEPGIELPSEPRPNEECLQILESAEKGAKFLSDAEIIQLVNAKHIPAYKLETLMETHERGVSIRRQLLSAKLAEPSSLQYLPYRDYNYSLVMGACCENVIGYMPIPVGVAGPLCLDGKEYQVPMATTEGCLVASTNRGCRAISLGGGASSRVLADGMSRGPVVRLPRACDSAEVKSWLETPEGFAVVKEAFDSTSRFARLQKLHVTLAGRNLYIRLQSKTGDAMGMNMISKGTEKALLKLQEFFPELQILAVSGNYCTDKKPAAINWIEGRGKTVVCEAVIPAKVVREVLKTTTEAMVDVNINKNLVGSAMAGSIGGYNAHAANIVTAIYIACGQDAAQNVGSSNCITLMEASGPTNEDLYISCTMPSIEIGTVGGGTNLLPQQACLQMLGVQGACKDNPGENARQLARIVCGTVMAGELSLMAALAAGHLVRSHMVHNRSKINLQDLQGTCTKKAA
readoutKind: pIC50
// pIC50 here means minus log10 of the molar concentration (mol/L)

**Query** Would you kindly share the measured pIC50 for CC(C)c1nc(-c2ccccc2)n(-c2ccc(F)cc2)c1/C=C/[C@H](O)C[C@H](O)CC(=O)O ?
**Result** 5.50

---

tested on: Canine glioma cells; assay: inhibition of thymidine incorporation (I50%); format: cell-based; details: Canis lupus familiaris, Glioma cell; 72 h exposure; read-out: I50%
Some compounds, each annotated with its measured IC50.
Numbers only; they are read as nM.

CC(C)c1nc(-c2ccccc2)n(-c2ccc(F)cc2)c1/C=C/[C@H](O)C[C@@H](O)CC(=O)O (relative stereo) : 80

**Query** Would you kindly share the measured IC50 for CC[C@H](C)C(=O)O[C@H]1CCC=C2C=C[C@H](C)[C@H](CC[C@@H]3C[C@@H](O)CC(=O)O3)[C@H]21 [compactin, reference compound] ?
**Result** 30

---

system: Canine glioma cells; assay: cytotoxicity as simple survival (T50%); assay type: cell-based; settings: Canis lupus familiaris, Glioma cell; 24 h exposure; read-out: T 50%
Some molecules, each annotated with its measured pIC50.
// pIC50 here means minus log10 of the molar concentration (mol/L)

CC(C)c1nc(-c2ccccc2)n(-c2ccc(F)cc2)c1/C=C/[C@H](O)C[C@@H](O)CC(=O)O (relative stereo) : 6.12

**Query** Would you kindly share the measured pIC50 for CC[C@H](C)C(=O)O[C@H]1CCC=C2C=C[C@H](C)[C@H](CC[C@@H]3C[C@@H](O)CC(=O)O3)[C@H]21 [compactin, reference compound] ?
**Result** 6.30
